The origin of these recorded values is ChEMBL document CHEMBL1153899.

- METHOD_SUMMARY: Half life in Sprague-Dawley rat liver at 10 mg/kg, po
- Assay type: ADME, organism-based
- Parameters: dose 10 mg/kg, route oral
MEASURED_METRIC: half-life (h)

structure_smiles=CC(C)c1ccc(-c2ccccc2C(=O)Nc2ccc3nc(C(=O)N[C@H](C(=O)N(C)Cc4ccc(F)cc4)c4ccccc4)sc3c2)cc1 endpoint_unit=h quantitative_result=19.4

---

- METHOD_SUMMARY: Cmax in Sprague-Dawley rat liver at 10 mg/kg, po
- Assay type: ADME, organism-based
- Design: dose 10 mg/kg, route oral
MEASURED_METRIC: Cmax (µg/kg)

structure_smiles=CC(C)c1ccc(-c2ccccc2C(=O)Nc2ccc3nc(C(=O)N[C@H](C(=O)N(C)Cc4ccc(F)cc4)c4ccccc4)sc3c2)cc1 measured_metric=Cmax quantitative_result=90.1

---

- METHOD_SUMMARY: Cmax in Sprague-Dawley rat plasma at 100 mg/kg, po
- Type: ADME, organism-based
- Parameters: dose 100 mg/kg, route oral
MEASURED_METRIC: Cmax (µg/mL)

structure_smiles=CC(C)c1ccc(-c2ccccc2C(=O)Nc2ccc3nc(C(=O)N[C@H](C(=O)N(C)Cc4ccc(F)cc4)c4ccccc4)sc3c2)cc1 measured_metric=Cmax endpoint_unit=µg/mL quantitative_result=0.0695

---

- METHOD_SUMMARY: Half life in Sprague-Dawley rat liver at 3 mg/kg, po
- Format: ADME, organism-based
- Set-up: dose 3 mg/kg, route oral
MEASURED_METRIC: half-life (h)

structure_smiles=CC(C)c1ccc(-c2ccccc2C(=O)Nc2ccc3nc(C(=O)N[C@H](C(=O)N(C)Cc4ccc(F)cc4)c4ccccc4)sc3c2)cc1 measured_metric=half-life endpoint_unit=h quantitative_result=10.7

---

- METHOD_SUMMARY: Cmax in Sprague-Dawley rat at 3 mg/kg, po
- Type: ADME, organism-based
- Parameters: dose 3 mg/kg, route oral
- CONDITION_LABEL: in vivo
MEASURED_METRIC: Cmax (ng/mL)

structure_smiles=CC(C)c1ccc(-c2ccccc2C(=O)Nc2ccc3nc(C(=O)N[C@H](C(=O)N(C)Cc4ccc(F)cc4)c4ccccc4)sc3c2)cc1 quantitative_result=22.2

---

- METHOD_SUMMARY: AUC (0 to infinity) in Sprague-Dawley rat liver at 10 mg/kg, po
- Type: ADME, organism-based
- Set-up: time infinity, dose 10 mg/kg, route oral
MEASURED_METRIC: AUC(0-inf) (ng·h/mL)

structure_smiles=CC(C)c1ccc(-c2ccccc2C(=O)Nc2ccc3nc(C(=O)N[C@H](C(=O)N(C)Cc4ccc(F)cc4)c4ccccc4)sc3c2)cc1 endpoint_unit=ng·h/mL quantitative_result=2640

---

- METHOD_SUMMARY: Half life in Sprague-Dawley rat liver at 100 mg/kg, po
- Assay type: ADME, organism-based
- Design: dose 100 mg/kg, route oral
MEASURED_METRIC: half-life

structure_smiles=CC(C)c1ccc(-c2ccccc2C(=O)Nc2ccc3nc(C(=O)N[C@H](C(=O)N(C)Cc4ccc(F)cc4)c4ccccc4)sc3c2)cc1 result="6.44 h"

---

- METHOD_SUMMARY: AUC (0 to infinity) in Sprague-Dawley rat liver at 100 mg/kg, po
- Type: ADME, organism-based
- Parameters: time infinity, dose 100 mg/kg, route oral
MEASURED_METRIC: AUC(0-inf) (ng·h/mL)

structure_smiles=CC(C)c1ccc(-c2ccccc2C(=O)Nc2ccc3nc(C(=O)N[C@H](C(=O)N(C)Cc4ccc(F)cc4)c4ccccc4)sc3c2)cc1 quantitative_result=1780
